System: antibodies in sera from SARS patients (sera 1a, 1b, 2, 6, 37, 62, London, SARS-yellow, SARS-green)
Type: binding, human
Listed here are sequences together with their documented Binding of serum 1a to looped/cyclic peptide (PEPSCAN-ELISA).
MEASURED_PARAMETER: Binding of serum 1a to looped/cyclic peptide (PEPSCAN-ELISA)

LFMRFFTLGSITAQP    0.5
DLFMRFFTLGSITAQ    0.5
RCWLCWKCKSKNPLL    0.7
GVAFLAVFQSATKII    0.6
YSHLLLVAAGMEAQF    0.4
CKSKNPLLYDANYFV    0.8
YFLQCINACRIIMRC    0.6
LLLVAAGMEAQFLYL    0.6
VAAGMEAQFLYLYAL    0.5
LLVAAGMEAQFLYLY    0.6
ACRTIMRCWLCWKCK    0.7
LALYKGFQFICNLLL    0.5
WLVIGVAFLAVFQSA    0.5
CWLCWKCKSKNPLLY    0.7
LAVFQSATKIIALNK    0.5
LVAAGMEAQFLYLYA    0.5
ATIPLQASLPFGWLV    0.6
LLLFVTIYSHLLLVA    0.5
GFQFICNLLLLFVTI    0.5
INACRIIMRCWLCWK    0.6

###

Tested on: antibodies in sera from SARS patients (sera 1a, 1b, 2, 6, 37, 62, London, SARS-yellow, SARS-green)
Assay type: binding, human
Set-up: unit not given here
MEASURED_PARAMETER: Binding of serum 6 to linear peptides of protein N of SARS-CoV Urbani

RSAPRITFGGPTDST    0.1
AQPLPQRQKKQPTVT    0.4
HIGTRNPNNNAATVL    0.2
TALTQHGKEELRFPR    0.1
RQLQNSMSGASADST    0.2
FPRGQGVPINTNSGP    0.2
QIGYYRRATRRVRGG    0.2
PSASAFFGMSRIGME    0.1
DHIGTRNPNNNAATV    0.2
APSASAFFGMSRIGM    0.1
LPNNTASWFTALTQH    0.1
TRNPNNNAATVLQLP    0.2
YKTFPPTEPKKDKKK    0.2
PRITFGGPTDSTDNN    0.1
NKEGIVWVATEGALN    0.2
EPKKDKKKKTDEAQP    0.2
SASAFFGMSRIGMEV    0.2
TDSTDNNQNGGRNGA    0.3
PLPQRQKKQPTVTLL    0.2
NTPKDHIGTRNPNNN    0.2
STDNNQNGGRNGARP    0.1
YYLGTGPEASLPYGA    0.2
SAFFGMSRIGMEVTP    0.2
APRITFGGPTDSTDN    0.2
LRFPRGQGVPINTNS    0.2
LNTPKDHIGTRNPNN    0.2
RRVRGGDGKMKELSP    0.2
DAYKTFPPTEPKKDK    0.3
RPKQRRPQGLPNNTA    0.2
KKKTDEAQPLPQRQK    0.7
LPAADMDDFSRQLQN    0.3
PNNNAATVLQLPQGT    0.1
DGKMKELSPRWYFYY    0.1
PTVTLLPAADMDDFS    0.1

###

System: control sera (pooled serum of ten healthy LUMC hospital workers; commercial negative donor pooled serum from the Dutch bloodbank)
Assay type: binding, human
Think of 0.6 as a floor: if Binding of Control serum LUMC to linear peptides of the protein X3 of SARS-CoV Urbani stands on it or above, it is YES; beneath it, NO.

DVIISSIVRQLFKPL    NO
TKKNYSELDDEEPME    NO
SSIVRQLFKPLTKKN    YES
YSELDDEEPMELDYP    YES
IMRTFRIAIWNLDVI    YES

###

Tested on: antibodies in sera from SARS patients (sera 1a, 1b, 2, 6, 37, 62, London, SARS-yellow, SARS-green)
Format: binding, human
Listed here are sequences together with their documented Binding of serum 1a to linear peptides of protein X5 of SARS-CoV Urbani.
MEASURED_PARAMETER: Binding of serum 1a to linear peptides of protein X5 of SARS-CoV Urbani

KVLPFHRWHTMVQTC    0.9
CALGKVLPFHRWHTM    0.7
TRGNTYSTAWLCALG    0.8
QTAAFRDVLVVLNKR    0.5
TAWLCALGKVLPFHR    0.7
LPFHRWHTMVQTCTP    0.8
KILVRYNTRGNTYST    0.7
DPAGGALIARCWYLH    0.7

###

Tested on: antibodies in sera from SARS patients (sera 1a, 1b, 2, 6, 37, 62, London, SARS-yellow, SARS-green)
Type: binding, human
MEASURED_PARAMETER: Binding of serum 2 to looped/cyclic peptides of protein X1 of SARS-CoV Urbani

DTGIENATFFIFNKL    0.6
NSVTDTIVVTEGDGI    0.2
PYNSVTDTIVVTEGD    0.3
STQITTDTGIENATF    0.3
VHGYFTEVYYQLEST    0.5
TDTIVVTEGDGISTP    0.2

###

Tested on: antibodies in sera from SARS patients (sera 1a, 1b, 2, 6, 37, 62, London, SARS-yellow, SARS-green)
Assay type: binding, human
Parameters: unit not given here
Binding of serum London to looped/cyclic peptides of protein N of SARS-CoV Urbani less than 0.4 is Yes; Binding of serum London to looped/cyclic peptides of protein N of SARS-CoV Urbani greater than or equal to 0.4 is No.

NKHIDAYKTFPPTEP    Yes
PKGFYAEGSRGGSQA    Yes
NTASWFTALTQHGKE    Yes
YYRRATRRVRGGDGK    Yes
TKQYNVTQAFGRRGP    No
TQGNFGDQDLIRQGT    No
EASLPYGANKEGIVW    No
LLDRLNQLESKVSGK    Yes
NVILLNKHIDAYKTF    No
TVTKKSAAEASKKPR    Yes
AYKTFPPTEPKKDKK    Yes
NQNGGRNGARPKQRR    Yes
YYLGTGPEASLPYGA    No
GTWLTYHGAIKLDDK    Yes
PKKDKKKKTDEAQPL    Yes
KEELRFPRGQGVPIN    No
GVPINTNSGPDDQIG    Yes
NQLESKVSGKGQQQQ    No
SKKPRQKRTATKQYN    No
DAYKTFPPTEPKKDK    Yes
GQQQQGQTVTKKSAA    Yes

###

Listed here are sequences together with their documented Binding of serum 62 to linear peptides of protein N of SARS-CoV Urbani.
Tested on: antibodies in sera from SARS patients (sera 1a, 1b, 2, 6, 37, 62, London, SARS-yellow, SARS-green)
Assay type: binding, human
MEASURED_PARAMETER: Binding of serum 62 to linear peptides of protein N of SARS-CoV Urbani

YLGTGPEASLPYGAN    0.6
QPTVTLLPAADMDDF    0.7
QNGGRNGARPKQRRP    0.8
GQGVPINTNSGPDDQ    0.6
AADMDDFSRQLQNSM    0.6
GTWLTYHGAIKLDDK    0.7
NTPKDHIGTRNPNNN    0.7
RNGARPKQRRPQGLP    0.6
LNKHIDAYKTFPPTE    0.5
PTEPKKDKKKKTDEA    0.7
PINTNSGPDDQIGYY    0.7
FPPTEPKKDKKKKTD    0.7
LPNNTASWFTALTQH    0.7
LPAADMDDFSRQLQN    0.6
NKHIDAYKTFPPTEP    0.5
KDKKKKTDEAQPLPQ    0.6
TDSTDNNQNGGRNGA    0.8
PQRQKKQPTVTLLPA    0.7

###

System: antibodies in sera from SARS patients (sera 1a, 1b, 2, 6, 37, 62, London, SARS-yellow, SARS-green)
Type: binding, human
Parameters: unit not given here
Think of 0.1 as a floor: if Binding of serum SARS-green to looped/cyclic peptides of protein N of SARS-CoV Urbani stands on it or above, it is T; beneath it, F.

RNGARPKQRRPQGLP    T
NVTQAFGRRGPEQTQ    T
GDGKMKELSPRWYFY    T
LQNSMSGASADSTQA    F
GDQDLIRQGTDYKHW    T
ASSRSSSRSRGNSRN    T
RGGDGKMKELSPRWY    T
EPKKDKKKKTDEAQP    F
AADMDDFSRQLQNSM    T
QGLPNNTASWFTALT    T
NQRSAPRITFGGPTD    T
ESKVSGKGQQQQGQT    T
ELSPRWYFYYLGTGP    T
KTFPPTEPKKDKKKK    F
